Entries and their measured pEC50 follow.
Target: Glucocorticoid receptor (Homo sapiens)
Sequence (P04150 whole entry): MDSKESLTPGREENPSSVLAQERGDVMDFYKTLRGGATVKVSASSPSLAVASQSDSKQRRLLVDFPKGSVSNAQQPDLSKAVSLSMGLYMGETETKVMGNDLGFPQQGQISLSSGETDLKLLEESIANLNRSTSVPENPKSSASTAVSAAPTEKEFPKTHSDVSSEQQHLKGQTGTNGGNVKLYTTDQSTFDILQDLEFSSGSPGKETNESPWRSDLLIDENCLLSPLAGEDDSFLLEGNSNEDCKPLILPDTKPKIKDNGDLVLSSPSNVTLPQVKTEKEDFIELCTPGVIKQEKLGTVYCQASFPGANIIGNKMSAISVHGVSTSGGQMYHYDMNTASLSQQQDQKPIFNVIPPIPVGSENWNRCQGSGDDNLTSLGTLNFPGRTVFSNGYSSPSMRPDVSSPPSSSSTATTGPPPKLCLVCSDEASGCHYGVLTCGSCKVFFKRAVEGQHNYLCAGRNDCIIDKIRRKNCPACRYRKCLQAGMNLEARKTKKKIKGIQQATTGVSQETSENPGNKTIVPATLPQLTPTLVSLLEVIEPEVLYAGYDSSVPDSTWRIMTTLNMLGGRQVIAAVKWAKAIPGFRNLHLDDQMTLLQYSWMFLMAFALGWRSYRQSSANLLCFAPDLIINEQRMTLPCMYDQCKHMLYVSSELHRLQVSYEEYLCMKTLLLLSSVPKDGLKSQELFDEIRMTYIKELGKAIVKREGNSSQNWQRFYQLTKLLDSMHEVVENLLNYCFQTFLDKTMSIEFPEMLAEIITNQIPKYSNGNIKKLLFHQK
Just the number, please; pEC50 means minus log10 of the concentration in mol/L.

Some solved cases for reference:
C[C@]12C=CC(=O)C=C1[C@@H](F)C[C@H]1[C@@H]3C[C@H]4CN(Cc5ccccc5)C[C@@]4(C(=O)CO)[C@@]3(C)C[C@H](O)[C@@]12F ... 8.77
C[C@]12C=CC(=O)C=C1[C@@H](F)C[C@H]1[C@@H]3C[C@H]4CN(c5ccccc5)C[C@@]4(C(=O)CF)[C@@]3(C)C[C@H](O)[C@@]12F ... 8.49

Now for the compound whose pEC50 we want.
Query :: Missing value: pEC50, Glucocorticoid receptor (Homo sapiens), entry `C[C@]12C=CC(=O)C=C1[C@@H](F)C[C@H]1[C@@H]3C[C@H]4CN(C(=O)OCc5ccccc5)C[C@@]4(C(=O)CO)[C@@]3(C)C[C@H](O)[C@@]12F` . Fill in?
Result :: 7.36

====

Entries and their measured pKa follow.
Test: physchem
Description: Dissociation constant, pKa of the compound
Just the number, please, no unit attached.

C[C@]12C=CC(=O)C=C1[C@@H](F)C[C@H]1[C@@H]3C[C@H]4CN(Cc5ccc(CSc6ccc(O)cc6)cc5)C[C@@]4(C(=O)CO)[C@@]3(C)C[C@H](O)[C@@]12F ... 6.95

Query :: Sample `C[C@]12C=CC(=O)C=C1[C@@H](F)C[C@H]1[C@@H]3C[C@H]4CNC[C@@]4(C(=O)CO)[C@@]3(C)C[C@H](O)[C@@]12F` — what was its pKa?
Result :: 8.82

Query :: Sample `C[C@]12C=CC(=O)C=C1[C@@H](F)C[C@H]1[C@@H]3C[C@H]4CN(Cc5cccc(Cl)c5)C[C@@]4(C(=O)CO)[C@@]3(C)C[C@H](O)[C@@]12F` — what was its pKa?
Result :: 6.64

Query :: Sample `CC(C)CCN1C[C@@H]2C[C@H]3[C@@H]4C[C@H](F)C5=CC(=O)C=C[C@]5(C)[C@@]4(F)[C@@H](O)C[C@]3(C)[C@]2(C(=O)CO)C1` — what was its pKa?
Result :: 7.98

Query :: Sample `Cc1cccc(CN2C[C@@H]3C[C@H]4[C@@H]5C[C@H](F)C6=CC(=O)C=C[C@]6(C)[C@@]5(F)[C@@H](O)C[C@]4(C)[C@]3(C(=O)CO)C2)c1` — what was its pKa?
Result :: 7.27

====

Assay: Cmax in Sprague-Dawley rat lung at 1 umol/kg, it by HPLC-MS/MS method
Type: ADME, tissue-based
Set-up: dose 1 umol/kg
Conditions: in vivo, inhaled_or_intranasal
endpoint label: Cmax (nmol/g)
Could you give me the number in nmol/g? Just the number is fine.

Some solved cases for reference:
CCCC1O[C@@H]2C[C@H]3[C@@H]4CCC5=CC(=O)C=C[C@]5(C)[C@H]4[C@@H](O)C[C@]3(C)[C@]2(C(=O)CO)O1 (some centres undefined) [BUDESONIDE] ... 18.67
C[C@]12C=CC(=O)C=C1[C@@H](F)C[C@H]1[C@@H]3C[C@H]4CN(Cc5cccc(Cl)c5)C[C@@]4(C(=O)CO)[C@@]3(C)C[C@H](O)[C@@]12F ... 64.26
C[C@]12C=CC(=O)C=C1[C@@H](F)C[C@H]1[C@@H]3C[C@H]4CN(Cc5cccc(Cl)c5)C[C@@]4(C(=O)CO)[C@@]3(C)C[C@H](O)[C@@]12F.Cl ... 9.03

Now for the compound whose Cmax we want.
Query :: Sample C[C@@H]1C[C@H]2[C@@H]3C[C@H](F)C4=CC(=O)C=C[C@]4(C)[C@@]3(F)[C@@H](O)C[C@]2(C)[C@@]1(OC(=O)c1ccco1)C(=O)SCF [FLUTICASONE FUROATE] — what was its Cmax?
Result :: 77.1

====

Molecular target: Mineralocorticoid receptor (Homo sapiens, UniProt P08235)
Sequence (P08235 whole entry): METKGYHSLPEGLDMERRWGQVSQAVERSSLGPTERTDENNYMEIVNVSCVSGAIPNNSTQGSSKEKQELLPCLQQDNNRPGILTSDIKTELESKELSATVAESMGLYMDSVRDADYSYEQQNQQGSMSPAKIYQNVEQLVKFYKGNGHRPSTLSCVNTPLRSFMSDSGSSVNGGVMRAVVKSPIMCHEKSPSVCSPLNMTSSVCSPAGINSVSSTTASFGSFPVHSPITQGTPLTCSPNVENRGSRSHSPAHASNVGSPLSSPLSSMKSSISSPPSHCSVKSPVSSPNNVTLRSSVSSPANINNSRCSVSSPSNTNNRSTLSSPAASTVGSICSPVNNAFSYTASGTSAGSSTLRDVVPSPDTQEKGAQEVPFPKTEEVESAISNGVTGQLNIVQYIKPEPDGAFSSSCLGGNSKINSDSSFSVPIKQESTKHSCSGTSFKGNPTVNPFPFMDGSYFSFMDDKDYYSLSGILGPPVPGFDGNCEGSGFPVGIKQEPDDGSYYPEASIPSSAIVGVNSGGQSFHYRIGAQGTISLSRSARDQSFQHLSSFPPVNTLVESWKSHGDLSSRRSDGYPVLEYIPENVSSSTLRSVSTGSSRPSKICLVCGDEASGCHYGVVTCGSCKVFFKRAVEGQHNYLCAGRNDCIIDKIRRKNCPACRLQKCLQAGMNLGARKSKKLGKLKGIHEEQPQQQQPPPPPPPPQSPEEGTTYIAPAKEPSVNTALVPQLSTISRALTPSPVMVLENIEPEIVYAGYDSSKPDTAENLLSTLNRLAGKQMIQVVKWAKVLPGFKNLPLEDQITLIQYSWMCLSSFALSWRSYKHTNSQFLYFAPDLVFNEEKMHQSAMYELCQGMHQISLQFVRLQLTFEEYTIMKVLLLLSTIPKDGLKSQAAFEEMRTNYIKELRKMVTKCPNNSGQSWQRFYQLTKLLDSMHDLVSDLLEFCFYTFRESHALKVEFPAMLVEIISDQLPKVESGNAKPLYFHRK
endpoint label: EC50 (nM)
Could you give me the number in nM? Just the number is fine.

C[C@]12C=CC(=O)C=C1[C@@H](F)C[C@H]1[C@@H]3C[C@H]4CN(Cc5cccc(Cl)c5)C[C@@]4(C(=O)CO)[C@@]3(C)C[C@H](O)[C@@]12F ... 2.5

Query :: Sample `C[C@]12C=CC(=O)C=C1[C@@H](F)C[C@H]1[C@@H]3C[C@H]4CN(Cc5ccc(CSc6ccc(O)cc6)cc5)C[C@@]4(C(=O)CO)[C@@]3(C)C[C@H](O)[C@@]12F` — what was its EC50?
Result :: 1.6

====

Molecular target: Glucocorticoid receptor (Homo sapiens, UniProt P04150)
Sequence (P04150 whole entry): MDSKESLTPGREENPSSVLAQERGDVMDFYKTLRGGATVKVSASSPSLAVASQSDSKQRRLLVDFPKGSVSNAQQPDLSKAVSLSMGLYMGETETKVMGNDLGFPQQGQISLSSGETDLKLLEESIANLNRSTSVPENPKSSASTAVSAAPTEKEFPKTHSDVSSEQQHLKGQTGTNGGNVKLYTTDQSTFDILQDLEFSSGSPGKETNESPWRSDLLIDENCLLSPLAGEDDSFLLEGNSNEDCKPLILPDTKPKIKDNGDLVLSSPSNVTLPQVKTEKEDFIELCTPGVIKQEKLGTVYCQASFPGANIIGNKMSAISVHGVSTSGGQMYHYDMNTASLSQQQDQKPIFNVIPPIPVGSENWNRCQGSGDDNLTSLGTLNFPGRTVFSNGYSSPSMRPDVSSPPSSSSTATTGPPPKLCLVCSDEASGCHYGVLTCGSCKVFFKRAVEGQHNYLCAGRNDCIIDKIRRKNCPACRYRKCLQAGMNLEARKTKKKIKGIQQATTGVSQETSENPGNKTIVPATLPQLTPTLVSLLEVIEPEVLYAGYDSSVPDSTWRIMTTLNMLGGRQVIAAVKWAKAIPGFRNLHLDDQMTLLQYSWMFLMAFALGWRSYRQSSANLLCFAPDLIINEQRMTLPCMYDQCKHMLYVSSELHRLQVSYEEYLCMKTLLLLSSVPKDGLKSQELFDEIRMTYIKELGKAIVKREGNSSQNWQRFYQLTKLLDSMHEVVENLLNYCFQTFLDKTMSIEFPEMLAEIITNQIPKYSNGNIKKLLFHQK
endpoint label: pKi
Just the number, please; pKi means minus log10 of the concentration in mol/L.

Some solved cases for reference:
C[C@]12C=CC(=O)C=C1[C@@H](F)C[C@H]1[C@@H]3C[C@H]4CN(c5cccc(Cl)c5)C[C@@]4(C(=O)CO)[C@@]3(C)C[C@H](O)[C@@]12F ... 9.28
Cc1cccc(CN2C[C@@H]3C[C@H]4[C@@H]5C[C@H](F)C6=CC(=O)C=C[C@]6(C)[C@@]5(F)[C@@H](O)C[C@]4(C)[C@]3(C(=O)CO)C2)c1 ... 9.28

Now for the molecule whose pKi we want.
Query :: Missing value: pKi, Glucocorticoid receptor (Homo sapiens, UniProt P04150), entry `C[C@]12C=CC(=O)C=C1[C@@H](F)C[C@H]1[C@@H]3C[C@H]4CN(Cc5cccc(Cl)c5)C[C@@]4(C(=O)CO)[C@@]3(C)C[C@H](O)[C@@]12F` . Fill in?
Result :: 9.12
